Target: porcine PDHc E1 (Sus scrofa, UniProt F1SGH5+P29804)
Experiment: Porcine PDHc-E1 inhibition, DCPIP reduction assay
Conditions: read-out: Ki PDH E1
readout type: Ki (nM)
Answers are plain numbers, in nM.

* Cc1ncc(Cn2cc(CCOC(=O)c3cccc([N+](=O)[O-])c3)nn2)c(N)n1 [Compound 12g] | 182

Now, please, on to the next molecule.
## Task Entry Cc1ncc(Cn2cc(CCOC(=O)c3ccccc3)nn2)c(N)n1 [Compound 12a] needs its Ki filled in; supply it.
## Result 100

* * *

System: P. falciparum 3D7 (chloroquine-sensitive) strain
Assay: In vitro antiplasmodial activity assay (SYBR-Safe; malstat for 15)
Assay type: cell-based, Plasmodium falciparum
Settings: Plasmodium falciparum, 3D7, read-out: Antiplasmodial IC50 (text, thiamine concentration not specified)
readout type: IC50

## Task Return reported IC50. Input compound: Cc1ncc(Cn2cc(CCO)nn2)c(NCc2ccc(Br)cc2)n1
## Result ~2 µM

* * *

Target: porcine PDHc E1 (Sus scrofa, UniProt F1SGH5+P29804)
Sequence (P29804 31-390): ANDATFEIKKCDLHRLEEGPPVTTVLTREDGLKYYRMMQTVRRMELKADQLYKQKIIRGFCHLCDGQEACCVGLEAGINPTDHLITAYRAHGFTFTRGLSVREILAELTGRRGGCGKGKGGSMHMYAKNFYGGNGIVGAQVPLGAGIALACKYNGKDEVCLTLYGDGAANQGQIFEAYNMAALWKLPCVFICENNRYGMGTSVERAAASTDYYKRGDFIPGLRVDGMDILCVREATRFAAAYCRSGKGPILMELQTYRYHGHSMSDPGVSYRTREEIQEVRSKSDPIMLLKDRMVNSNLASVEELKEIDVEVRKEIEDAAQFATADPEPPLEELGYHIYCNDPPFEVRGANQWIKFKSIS
Sequence (F1SGH5 32-360): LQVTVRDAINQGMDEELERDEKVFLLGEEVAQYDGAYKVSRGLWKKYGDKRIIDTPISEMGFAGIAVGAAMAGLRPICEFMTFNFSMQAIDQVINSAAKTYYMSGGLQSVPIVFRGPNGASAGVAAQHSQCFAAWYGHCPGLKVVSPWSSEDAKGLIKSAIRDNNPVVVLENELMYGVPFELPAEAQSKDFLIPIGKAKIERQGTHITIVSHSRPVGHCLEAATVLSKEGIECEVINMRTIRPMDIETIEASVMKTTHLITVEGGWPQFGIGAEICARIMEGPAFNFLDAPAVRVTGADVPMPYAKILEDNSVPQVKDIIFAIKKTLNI
Test: Porcine PDHc-E1 inhibition, DCPIP reduction assay
Type: biochemical
Settings: read-out: Inhibition (%) of PDH E1
readout type: inhibition at 50 µM (%)
One number for each entry, in %.

Guide cases for inhibition at 50 µM, answers given:
* Cc1ncc(Cn2cc(CCOC(=O)c3ccccc3)nn2)c(N)n1 [Compound 12a] | 72
* Cc1ncc(Cn2cc(CCO)nn2)c(N)n1 [Compound 6, reference compound] | 60
* Cc1ncc(Cn2cc(CCOC(=O)c3cccc(Cl)c3)nn2)c(N)n1 [Compound 12c] | 72
* Cc1ncc(Cn2cc(CCOc3ccc([N+](=O)[O-])cc3)nn2)c(N)n1 [Compound 13a] | 75
* Cc1ncc(Cn2cc(CCOC(=O)c3ccccc3Cl)nn2)c(N)n1 [Compound 12d] | 61

Hi, could you look up inhibition at 50 µM for each item in my list?
1. Cc1ncc(Cn2cc(CCOC(=O)c3cccc([N+](=O)[O-])c3)nn2)c(N)n1 [Compound 12g]
2. Cc1ncc(Cn2cc(CCO)nn2)c(NCc2ccc(Br)cc2)n1
3. Cc1ncc(Cn2cc(CCOC(=O)c3ccc(Cl)cc3)nn2)c(N)n1 [Compound 12b]
4. Cc1ncc(Cn2cc(CCOC(=O)c3ccc([N+](=O)[O-])cc3)nn2)c(N)n1 [Compound 12f]
5. Cc1ncc(Cn2cc(CCOC(=O)c3ccc(Br)cc3)nn2)c(N)n1 [Compound 12e]

## Result
1. 56
2. 0
3. 81
4. 55
5. 73

* * *

Test system: P. falciparum 3D7 (chloroquine-sensitive) strain
Experiment: In vitro antiplasmodial activity assay (SYBR-Safe; malstat for 15)
Format: cell-based, Plasmodium falciparum
Details: Plasmodium falciparum, 3D7, read-out: Antiplasmodial IC50, thiamine free
Provide the recorded IC50 for the entries that follow.
Please report the result as a number followed by the unit.

Consider the following illustrative entries.
• Cc1ncc(Cn2cc(CCOC(=O)c3cccc([N+](=O)[O-])c3)nn2)c(N)n1 [Compound 12g] = 135 µM
• Cc1ncc(Cn2cc(CCOC(=O)c3ccc(Cl)cc3)nn2)c(N)n1 [Compound 12b] = 107 µM

Consider the record given below.
## Task Return the recorded IC50 value; entry: Cc1ncc(Cn2cc(CCOC(=O)c3ccccc3)nn2)c(N)n1 [Compound 12a]
## Result 128 µM
